Measured values drawn from patent US20080031982A1 for this set.

System: LPS-treated 3T3-L1 adipocytes
Test: Adiponectin secretion in LPS/3T3-L1 adipocytes
Format: cell-based, murine
Settings: at the concentration of maximum stimulation
Recorded % Stimulation of adiponectin secretion (maximum) values for a group of molecules are listed next.
ASSAY ENDPOINT: % Stimulation of adiponectin secretion (maximum) (%)

MOLECULE	RECORDED NUMBER
CC(C)Cc1ccc(C(C)C(=O)O)cc1 (stereo not shown) [ibuprofen]	22
Cc1c(C)c2c(c(C)c1O)CCC(C)(COc1ccc(CC3SC(=O)NC3=O)cc1)O2 (stereo not shown) [Troglitazone, troglitazone]	15
CCc1ccc(CCOc2ccc(CC3SC(=O)NC3=O)cc2)nc1 (stereo not shown) [Pioglitazone, pioglitazone]	12
COc1ccc2c(c1)c(CC(=O)O)c(C)n2C(=O)c1ccc(Cl)cc1 [Indomethacin, indomethacin]	9
